All values here come from patent US20250388664A1.

- assayed_system: T1, truncated cTfR1 of SEQ ID NO:123 (cynomolgus monkey, UniProt Q5RDH6 122-760 (Pongo abelii entry))
- T1 construct: also called cynomolgus TfR1
- T1 chain: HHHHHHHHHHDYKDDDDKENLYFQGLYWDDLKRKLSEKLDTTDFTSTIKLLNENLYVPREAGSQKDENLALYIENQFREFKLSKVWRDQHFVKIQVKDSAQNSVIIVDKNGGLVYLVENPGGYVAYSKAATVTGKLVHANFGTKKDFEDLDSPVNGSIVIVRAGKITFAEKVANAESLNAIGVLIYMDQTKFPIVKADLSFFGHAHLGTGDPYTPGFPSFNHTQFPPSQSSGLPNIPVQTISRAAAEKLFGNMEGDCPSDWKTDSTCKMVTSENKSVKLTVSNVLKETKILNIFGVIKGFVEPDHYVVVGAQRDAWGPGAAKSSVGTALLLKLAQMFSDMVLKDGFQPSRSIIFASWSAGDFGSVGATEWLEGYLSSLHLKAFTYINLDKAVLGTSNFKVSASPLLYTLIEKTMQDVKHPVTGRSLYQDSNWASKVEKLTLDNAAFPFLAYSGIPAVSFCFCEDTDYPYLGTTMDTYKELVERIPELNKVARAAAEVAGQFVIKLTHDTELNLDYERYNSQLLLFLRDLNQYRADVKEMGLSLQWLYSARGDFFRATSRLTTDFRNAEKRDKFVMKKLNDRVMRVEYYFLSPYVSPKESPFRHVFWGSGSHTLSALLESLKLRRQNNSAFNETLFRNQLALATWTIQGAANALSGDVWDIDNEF
- test_summary: SPR, FLAG-captured TfR1, scFv injected, 1:1 fit
kon for assorted binders
Form entry: value (M⁻¹ s⁻¹) — number only.

h26D3 HC6 DS V11R T120K (scFv, also called h26D3 DS V11R T120K) scFv: HHHHHHGGGGSGGGGSGGGGSGGGGSDIQMTQSPSSVSASVGDRVTITCKSSQSLLYSTNQKNYLAWYQQKPGKAPKLLIYWASTRESGVPSRFSGSGSGTDFTLTISSLQPEDFATYYCQQYFIYPRTFGCGTKVEIKGGGGSGGGGSGGGGSGGGGSEVQLVQSGAERKKPGSSVKVSCKASGYIFTDYNMDWVRQAPGQCLEWIGDINPDADTTSYNEKFKGRATLTVDKSTSTAYMELSSLRSEDTAVYYCARGGYSGSSYYHPMDYWGQGTLVKVSS    61300

Now for the binder whose kon we want.
Entry h26D3 HC6 DS S16E L118S (scFv, also called h26D3 DS S16E L118S) scFv: HHHHHHGGGGSGGGGSGGGGSGGGGSDIQMTQSPSSVSASVGDRVTITCKSSQSLLYSTNQKNYLAWYQQKPGKAPKLLIYWASTRESGVPSRFSGSGSGTDFTLTISSLQPEDFATYYCQQYFIYPRTFGCGTKVEIKGGGGSGGGGSGGGGSGGGGSEVQLVQSGAEVKKPGESVKVSCKASGYIFTDYNMDWVRQAPGQCLEWIGDINPDADTTSYNEKFKGRATLTVDKSTSTAYMELSSLRSEDTAVYYCARGGYSGSSYYHPMDYWGQGTSVTVSS — recorded kon = 41700
